Catalogue of pest or weed control at 560 g/ha values
tested on: Amaranthus rudis (AMATA), tall water hemp; assay: Postemergence herbicide evaluation, growth of Amaranthus rudis (AMATA); format: in vivo; conditions: Amaranthus tuberculatus, post-emergence, 168 h, 560 g ae/ha, 7 DAA; read-out: Ave. AMATA, percent reduction in plant size relative to the untreated control
# value in %; strip the unit string

As a guide, the following entries are already answered.
- O=C(COc1ccc(Cl)cc1Cl)Nc1cc[nH]n1 [Compound D21]: 90
- N/C(=N\OC(=O)COc1ccc(Cl)cc1Cl)c1ccco1 [Compound A5]: 65
- N/C(=N\OC(=O)COc1ccc(Cl)cc1Cl)c1ccccc1 [Compound A3]: 78

Requested field: pest or weed control at 560 g/ha. Item: C/C(=N\OC(=O)COc1ccc(Cl)cc1Cl)c1ccccc1Cl [Compound A24] 72.5

Item under review: CC(C)CONC(=O)COc1ccc(Cl)cc1Cl [Compound D22] . Reported pest or weed control at 560 g/ha? 92.5

###

tested on: Chenopodium album (CHEAL), common lambsquarters; experiment: Postemergence herbicide evaluation, growth of Chenopodium album (CHEAL); assay type: in vivo; details: Chenopodium album, post-emergence, 504 h, 560 g ae/ha, 21 DAA; read-out: Ave. CHEAL, percent reduction in plant size relative to the untreated control
Each entry below carries its recorded pest or weed control at 560 g/ha.
Please give a number only; it is taken to be in %.

Sample answers from the record:
* CC(C)CONC(=O)COc1ccc(Cl)cc1Cl | 97.5
* O=C(COc1ccc(Cl)cc1Cl)O/N=C/c1ccccc1 | 87
* CC(C)ONC(=O)COc1ccc(Cl)cc1Cl | 95
* C/C(=N\OC(=O)COc1ccc(Cl)cc1Cl)c1cccnc1 | 95

# ---- query compound ----
Using the record for O=C(COc1ccc(Cl)cc1Cl)O/N=C/c1ccncc1 , report its pest or weed control at 560 g/ha. 100

###

tested on: weeds ABUTH, AMATA, AMBEL, CHEAL, ERICA; test: Postemergence herbicide evaluation, overall average % weed control (ABUTH, AMATA, AMBEL, CHEAL, ERICA); format: in vivo; conditions: post-emergence, 336 h, 560 g ae/ha, 14 DAA; read-out: Overall Ave % Weed Control
Quick rule: pest or weed control at 560 g/ha of at least 90% means True, below that means False.

Consider the worked cases shown below.
- C/C(=N\OC(=O)COc1ccc(Cl)cc1Cl)c1ccncc1: True
- C/C(=N\OC(=O)COc1ccc(Cl)cc1Cl)c1cccnc1: True
- CC(C)ONC(=O)COc1ccc(Cl)cc1Cl: True
- O=C(COc1ccc(Cl)cc1Cl)O/N=C/c1cccnc1: True

Please indicate if the recorded pest or weed control at 560 g/ha for O=C(COc1ccc(Cl)cc1Cl)Nc1c(Cl)c(F)nc(F)c1Cl meets or exceeds 90%. False

Hi team, for CC(C)CONC(=O)COc1ccc(Cl)cc1Cl , is the recorded pest or weed control at 560 g/ha at or above 90%? True

Entry C[N+](C)(C)CCOC(=O)COc1ccc(Cl)cc1Cl.[Cl-] : is its pest or weed control at 560 g/ha no less than 90%? False

Check this compound for pest or weed control at 560 g/ha at or above 90%: O=C(COc1ccc(Cl)cc1Cl)O/N=C1\CCCc2ccccc21 False

Record N/C(=N\OC(=O)COc1ccc(Cl)cc1Cl)c1cccnc1 ; criterion: pest or weed control at 560 g/ha no lower than 90%. Met? False
